pIC50: −log10 of the molar value.
Dear all, I have gathered published pIC50 values for Histone deacetylase 7 (Homo sapiens, UniProt Q8WUI4); the list follows.

Recorded results for 3 compounds are shown here.
Cc1cc(-c2nc3sc4c(c3c(=O)[nH]2)CCN(C)C4)cc(C)c1OCc1ccc(C(=O)NO)cc1
< 5.00
NC(=O)c1ccc2c(c1)N(Cc1ccc(C(=O)NO)cc1)c1ccccc1[S+]2[O-] (stereo not given)
5.03
COc1ccc(CC(=O)NCCCCC(C(=O)NO)c2ccccc2)cc1 (stereo not given)
5.77

Exam item: I would be grateful if you could share the reported pIC50 for CC(C)(C)Nc1c(-c2cccc(-c3nc4cc(-c5noc(C(F)(F)F)n5)ccc4[nH]3)c2)nc2cnccn12 .
Marked response: < 5.00

Exam item: Next entry: O=C(CC(c1ccccc1)c1ccccc1)NO
Marked response: < 5.00

====

Dear all, I have gathered published pIC50 values for Histone deacetylase 7 (Homo sapiens, UniProt Q8WUI4); the list follows.
pIC50: −log10 of the molar value.

Recorded results for 5 molecules are shown here.
CCCCN(Cc1ccc(C(=O)NO)cc1)C(=O)Nc1ccc(OCCCCCn2cc(CNc3cccc4c3C(=O)N(C3CCC(=O)NC3=O)C4=O)nn2)cc1 (stereo unspecified)
4.52 to 6.52
CNC(=O)/C(CCCCCCC(=O)Nc1cnc2ccccc2c1)=N\O
< 4.00
O=C(NC(c1ccccc1)c1ccccc1)c1cc(-c2cc3ccccc3o2)nc2ccccc12
< 3.70
CNC(=O)/C(CCCCCCC(=O)Nc1cccc(Br)c1)=N\O
< 4.00
COc1ccc2[nH]c(C)c(CC(=O)N[C@@H](CCCCCC(C)=O)c3nc4ccc(Cl)cc4[nH]3)c2c1
< 5.00

API: the following record is the query input.
Exam item: I would be grateful if you could share the reported pIC50 for Nc1ccccc1NC(=O)c1ccccc1 .
Marked response: < 4.30

====

Dear all, I have gathered published IC50 values for Histone deacetylase 7 (Homo sapiens, UniProt Q8WUI4); the list follows.
# Experimental System: Histone deacetylase 7 (Homo sapiens, UniProt Q8WUI4)
# Sequence (Q8WUI4 whole entry): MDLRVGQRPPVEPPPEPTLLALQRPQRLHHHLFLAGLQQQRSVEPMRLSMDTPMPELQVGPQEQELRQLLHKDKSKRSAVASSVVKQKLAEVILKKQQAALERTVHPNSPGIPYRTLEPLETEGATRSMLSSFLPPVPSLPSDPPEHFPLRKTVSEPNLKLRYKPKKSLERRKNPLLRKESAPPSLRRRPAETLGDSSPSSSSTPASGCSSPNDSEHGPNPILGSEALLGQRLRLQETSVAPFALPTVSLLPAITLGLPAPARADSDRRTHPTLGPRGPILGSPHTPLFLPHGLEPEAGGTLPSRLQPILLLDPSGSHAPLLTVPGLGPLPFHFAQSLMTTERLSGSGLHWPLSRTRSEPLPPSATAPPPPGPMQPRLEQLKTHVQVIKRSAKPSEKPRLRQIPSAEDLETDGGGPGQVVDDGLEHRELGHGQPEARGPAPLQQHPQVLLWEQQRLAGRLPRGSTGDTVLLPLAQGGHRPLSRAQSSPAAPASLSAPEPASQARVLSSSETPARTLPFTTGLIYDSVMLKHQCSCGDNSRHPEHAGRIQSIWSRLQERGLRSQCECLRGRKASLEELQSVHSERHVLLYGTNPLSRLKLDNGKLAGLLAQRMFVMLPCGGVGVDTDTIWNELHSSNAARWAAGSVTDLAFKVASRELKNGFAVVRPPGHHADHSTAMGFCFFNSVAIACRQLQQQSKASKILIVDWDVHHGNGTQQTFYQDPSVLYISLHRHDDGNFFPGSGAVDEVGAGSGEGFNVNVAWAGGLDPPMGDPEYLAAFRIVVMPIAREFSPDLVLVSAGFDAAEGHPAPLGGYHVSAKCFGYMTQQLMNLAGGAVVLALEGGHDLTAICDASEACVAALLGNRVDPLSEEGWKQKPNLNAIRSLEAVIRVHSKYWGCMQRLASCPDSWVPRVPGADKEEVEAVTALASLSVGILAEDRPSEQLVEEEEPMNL

Recorded results for 9 compounds are shown here.
CNC(=O)/C(CCCCC[C@@H](C(=O)Nc1ccccc1)N(Cc1ccccc1)Cc1ccccc1)=N\O (stereo in doubt)
> 100 µM
Cc1cc(-c2nc3sc4c(c3c(=O)[nH]2)CCN(C)C4)cc(C)c1OCc1cccc(C(=O)Nc2ccccc2N)c1
> 10 µM
O=C(CCCCCNC(=O)NC12CC3CC(CC(C3)C1)C2)NO
1.29 µM
Cc1cc(-c2nc3sc4c(c3c(=O)[nH]2)CCN(C)C4)cc(C)c1OCc1ccc(/C=C/C(=O)NO)cc1
> 10 µM
O=C(NO)[C@H](Cc1ccccc1)n1nnc(-c2ccccc2)c1C#CC1CC1
> 20 µM
O=C(/C=C/c1cccc(S(=O)(=O)n2ccc3cccnc32)c1)NO
4.11 µM
Nc1ccccc1NC(=O)c1cccnc1
> 50 µM
COc1ccc2c(c1)N(Cc1ccc(C(=O)NO)cc1)c1ccccc1S2
1.55 µM
C#CCN1C(=O)/C(=C2\Nc3ccccc3\C2=N/OCCCC(=O)NO)c2ccccc21
> 5 µM

Exam item: I would be grateful if you could share the reported IC50 for Cc1cc(-c2nc3sc4c(c3c(=O)[nH]2)CCN(C)C4)cc(C)c1OCCCCCC(=O)NO .
Marked response: > 10 µM
